System: Fibroblast
assay-info: Incucyte cell viability with human fibroblast; also: unitless GR value; below 1 slowed growth and below 0 cell loss
Type: toxicity, cell-based
measurement-setup: 0 h, 10 µM, compound concentration 10 uM, replicate number 2
Reported values of Growth Rate for individual entries

# example entries with known answers
>  <molecule>
CN1CCC[C@H]1c1cccnc1

>  <reported-value>
-0.9

$$$$
>  <molecule>
COc1cc(-c2cncc(-c3ccc(N4CCN(C(C)C)CC4)cc3)c2C)cc(F)c1C(N)=O

>  <reported-value>
-0.84

$$$$
>  <molecule>
CC(C)(C[C@H]1CN(S(=O)(=O)c2cccc(C(F)(F)F)c2)c2cc(-c3cc(F)cc(OC(F)F)c3)ccc2O1)C(=O)O

>  <reported-value>
0.71

$$$$

(Q) Using the record for CN(C)C(=O)c1sc2nc(N3CCC(S(C)(=O)=O)CC3)cc(C(F)(F)F)c2c1N , report its Growth Rate.
(A) -0.94

(Q) Same for CCc1ccccc1C(=O)Nc1n[nH]c2c(C)c(F)c(C3C(C#N)=C(C)N(C)C(C)=C3C#N)cc12
(A) -0.1

(Q) Also, COc1ccc(-n2c(C)c([N+](=O)[O-])c3ccc(O)cc32)cc1 please.
(A) 0.13

(Q) Okay, and Cc1sc(C(=O)c2cncnc2N[C@@H]2C[C@H](COS(N)(=O)=O)[C@@H](O)C2)cc1[C@@H]1NCCc2ccc(Cl)cc21 ?
(A) -0.16

Cited source: ChEMBL document CHEMBL5303304
